Data provenance: paper PMC12349723

Biological target: P-gp (Homo sapiens)
Construct: The MDR, P-gp overexpressing DU145-TXR cells were maintained under positive selection pressure; endogenous in cells; host or cells: DU145-TXR (paclitaxel-resistant sub-line of DU145 human prostate cancer cells)
Sequence (P08183 whole entry): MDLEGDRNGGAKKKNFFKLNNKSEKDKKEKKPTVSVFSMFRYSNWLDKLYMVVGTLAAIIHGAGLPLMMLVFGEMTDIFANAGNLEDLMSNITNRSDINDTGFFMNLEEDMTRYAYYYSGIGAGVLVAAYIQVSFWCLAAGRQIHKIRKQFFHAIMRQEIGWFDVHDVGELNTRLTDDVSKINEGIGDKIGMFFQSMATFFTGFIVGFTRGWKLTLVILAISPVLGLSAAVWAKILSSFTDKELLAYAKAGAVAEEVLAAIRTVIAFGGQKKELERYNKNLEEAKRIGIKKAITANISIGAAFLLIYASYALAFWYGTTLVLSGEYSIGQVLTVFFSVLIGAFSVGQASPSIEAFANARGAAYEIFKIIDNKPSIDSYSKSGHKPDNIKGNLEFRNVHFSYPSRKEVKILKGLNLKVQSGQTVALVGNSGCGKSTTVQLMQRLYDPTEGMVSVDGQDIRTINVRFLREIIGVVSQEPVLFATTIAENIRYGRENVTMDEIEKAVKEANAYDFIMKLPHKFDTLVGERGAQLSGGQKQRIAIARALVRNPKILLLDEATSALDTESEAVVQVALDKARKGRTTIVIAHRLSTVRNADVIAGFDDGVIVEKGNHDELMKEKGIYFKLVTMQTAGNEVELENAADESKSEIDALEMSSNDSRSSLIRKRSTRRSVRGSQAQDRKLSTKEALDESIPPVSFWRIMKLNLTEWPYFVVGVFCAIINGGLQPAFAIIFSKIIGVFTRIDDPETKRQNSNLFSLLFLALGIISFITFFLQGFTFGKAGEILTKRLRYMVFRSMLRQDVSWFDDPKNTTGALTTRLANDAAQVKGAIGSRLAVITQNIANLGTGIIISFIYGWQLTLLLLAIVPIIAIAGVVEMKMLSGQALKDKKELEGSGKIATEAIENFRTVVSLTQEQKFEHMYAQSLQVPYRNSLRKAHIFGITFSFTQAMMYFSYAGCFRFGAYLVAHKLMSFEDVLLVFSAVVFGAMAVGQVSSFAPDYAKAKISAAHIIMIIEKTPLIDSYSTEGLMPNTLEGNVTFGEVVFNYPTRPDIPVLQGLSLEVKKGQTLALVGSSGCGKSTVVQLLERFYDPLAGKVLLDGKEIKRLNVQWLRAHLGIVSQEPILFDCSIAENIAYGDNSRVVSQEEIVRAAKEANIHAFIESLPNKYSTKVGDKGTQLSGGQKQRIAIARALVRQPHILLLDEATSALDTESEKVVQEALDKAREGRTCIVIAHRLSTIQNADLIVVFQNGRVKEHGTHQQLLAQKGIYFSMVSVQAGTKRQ
Test: Top Hit classification from combined in vitro criteria
Conditions: reverse MDR, do not increase PTX toxicity in chemo-sensitive cancer cells, non-toxic to noncancerous cells, not P-gp substrates
resultType: Top Hit

Please review the following examples before continuing.
{"compound": "Cc1onc(-c2ccccc2)c1-c1nnc(Cn2cnc3c(oc4ccccc43)c2=O)o1", "Top Hit": "Yes"}
{"compound": "NS(=O)(=O)c1cccc(NC(=O)CSc2nnnn2C2CC2)c1", "Top Hit": "No"}
{"compound": "Cc1ccc(-c2noc(-c3cn(Cc4ccc(NS(=O)(=O)c5ccccc5F)cc4)cn3)n2)cc1", "Top Hit": "No"}
{"compound": "O=S(=O)(Cc1nc2ccccc2n1CC(O)c1ccc(Cl)cc1)c1ccccc1 (centres unmarked)", "Top Hit": "Yes"}
{"compound": "Nc1nonc1-n1nnc(C(=O)N/N=C/c2c3ccccc3cc3ccccc23)c1COc1ccc(F)cc1", "Top Hit": "No"}
{"compound": "COc1ccc(OC)c(NC(=O)c2nnn(-c3ccc4noc(-c5ccccc5)c4c3)c2C)c1", "Top Hit": "No"}
{"compound": "O=S(=O)(CCSc1nnc(-c2ccccc2)c2ccccc12)c1ccccc1", "Top Hit": "Yes"}

Turning now to a further compound:
Need Top Hit, item CCN1CCN(Cc2c(C(=O)N/N=C3/C(=O)N(C)c4ccccc43)nnn2-c2nonc2N)CC1
No

---

Target: P-gp (Homo sapiens)
Construct: The MDR, P-gp overexpressing DU145-TXR cells were maintained under positive selection pressure; endogenous in cells; host or cells: DU145-TXR (paclitaxel-resistant sub-line of DU145 human prostate cancer cells)
Assay: Top Hit classification from combined in vitro criteria
Conditions: reverse MDR, do not increase PTX toxicity in chemo-sensitive cancer cells, non-toxic to noncancerous cells, not P-gp substrates
resultType: Top Hit

Please review the following examples before continuing.
{"compound": "Cc1cccc(C2CC(=O)c3cnn(-c4nc5ccccc5[nH]4)c3C2)c1 (centres unmarked) [Compound 79]", "measuredValue": "No"}
{"compound": "O=C(c1cc2ccccc2[nH]1)N1CCN(S(=O)(=O)c2cccc3nonc23)CC1 [Compound 66]", "measuredValue": "No"}
{"compound": "O=C(NCc1cccc(F)c1)c1nnn2c1Sc1c(C(=O)NCc3cccc(F)c3)nnn1CC2 [Compound 122]", "measuredValue": "No"}
{"compound": "O=C(c1nc(-c2ccc3cc[nH]c3c2)no1)N1CCN(c2nsc3ccccc23)CC1 [Compound 70]", "measuredValue": "Yes"}
{"compound": "COc1cccc(N2CCN(c3ccc4nnc(CCC(=O)Nc5ccc(F)c(F)c5)n4n3)CC2)c1 [Compound 101]", "measuredValue": "Yes"}
{"compound": "Cn1cnnc1SCc1c(C(=O)O)nnn1-c1nonc1N [Compound 59, Cn1cnnc1SCc1c(nnn1-c1nonc1N)C(O)=O]", "measuredValue": "No"}
{"compound": "O=C(c1nc(-c2ccccn2)no1)N1CCN(c2nsc3ccccc23)CC1 [Compound 124]", "measuredValue": "No"}

Need Top Hit, item Cc1onc(-c2ccccc2)c1-c1nnc(Cn2cnc3ccccc3c2=O)o1 [Compound 111]
Yes
